tested on: NCI/ADR-RES cells; test: antiproliferation assay, NCI/ADR-RES; format: cell-based; conditions: Homo sapiens, paclitaxel-resistant NCI/ADR-RES
recorded.metric: IC50
Hey, just the number and the unit after it is fine.

molecule	target.under.test	IC50
CC(=O)O[C@H]1C(=O)[C@@]2(C)[C@H]([C@H](OC(=O)c3ccccc3)[C@]3(O)C[C@H](OC(=O)[C@H](O)[C@@H](NC(=O)c4ccccc4)c4ccccc4)C(C)=C1C3(C)C)[C@]1(OC(C)=O)CO[C@@H]1C[C@@H]2O [paclitaxel, reference compound]	NCI/ADR-RES cells	9.6 µM

Now for a further molecule.
Note to self: IC50 recorded for C=CC[C@H]1C[C@]2([C@H](C)Cc3cc(O)c(OC)cc3F)OCOC2=CC1=O (relative stereo) [Compound 4] was 0.009 µM

###

test system: KM12 cells; assay: NCI-60 panel antiproliferation, KM12; format: cell-based, human; conditions: NCI 60-cell panel
recorded.metric: pIC50
On this scale, pIC50 is minus log10 of a concentration expressed in M (mol/L).

Measured pIC50, C=CC[C@H]1C[C@]2([C@@H](C)Cc3ccc(OC)c(OC)c3)OCOC2=CC1=O [bifidenone, Bifidenone] : 6.49

###

Tested on: T-47D cells
Assay: NCI-60 panel antiproliferation, T-47D
Assay type: cell-based, human
Conditions: Homo sapiens, T47D, NCI 60-cell panel
Experimental: Bifidenone and Compound 37 were tested for antiproliferation activity against the NCI-60 panel of cancer cell lines. […]
recorded.metric: IC50

Documented IC50 of C=CC[C@H]1C[C@]2([C@@H](C)Cc3ccc(OC)c(F)c3)OCOC2=CC1=O : > 10 µM

###

system: UACC-257 cells; experiment: NCI-60 panel antiproliferation, UACC-257; format: cell-based, human; conditions: NCI 60-cell panel
recorded.metric: IC50 (nM)
Field: numeric (nM). Do not append units.

IC50 measured on C=CC[C@H]1C[C@]2([C@@H](C)Cc3ccc(OC)c(OC)c3)OCOC2=CC1=O = 160

###

test system: NCI/ADR-RES cells; assay: antiproliferation assay, NCI/ADR-RES; format: cell-based; settings: Homo sapiens
recorded.metric: IC50 (nM)
Report the figure in nM without appending any unit label.

See these solved cases before continuing.
molecule	recorded.metric	result
C=CC[C@H]1C[C@]2([C@@H](C)Cc3ccc(OC)c(C(N)=O)c3)OCOC2=CC1=O	IC50	44
C=CC[C@H]1C[C@]2([C@@H](C)Cc3ccc(OC)c(O)c3)OCOC2=CC1=O	IC50	38
CCC[C@H]1C[C@]2([C@H](C)Cc3cc(F)c(OC)cc3F)OCOC2=CC1=O	IC50	63
C=CC[C@H]1C[C@]2([C@H](C)Cc3cc(F)c(OC)cc3F)OCOC2=CC1=O (relative stereo)	IC50	13

The recorded IC50 for C=CC[C@H]1C[C@]2([C@H](C)Cc3cc(O)c(OC)cc3F)OCOC2=CC1=O (relative stereo) is 9.1

IC50 in this record for C=CC[C@H]1C[C@]2([C@@H](C)Cc3ccc(OC)cc3F)OCOC2=CC1=O (relative stereo) : 45

###

system: NCI-H522 cells; assay: NCI-60 panel antiproliferation, NCI-H522; assay type: cell-based, human; details: Homo sapiens, NCI 60-cell panel
recorded.metric: IC50 (nM)
Give just the number in nM; leave the unit off.

Per the record, C=CC[C@H]1C[C@]2([C@@H](C)Cc3ccc(OC)c(F)c3)OCOC2=CC1=O has IC50 of 61
